Data credit: patent US7635664B2

test: logP determination by HPLC on reversed-phase column, acidic range; type: physicochemical; conditions: marked a): acidic range, 0.1% aqueous phosphoric acid/acetonitrile gradient, reversed-phase C 18 HPLC, 43° C.

compound: CON(C)C(=O)Nc1c(Cl)ccc(C(=O)c2cnn(C)c2O)c1Cl [Example 3]
logP: (I-2) logP = 1.13^a)
//
compound: Cn1ncc(C(=O)c2ccc(Cl)c(NC(=O)N=c3sccn3C)c2Cl)c1O [Example 177]
logP: (I-2) logP = 1.13^a)

###

assay: logP determination by HPLC on reversed-phase column, acidic range; type: physicochemical; conditions: marked a): acidic range, 0.1% aqueous phosphoric acid/acetonitrile gradient, reversed-phase C 18 HPLC, 43° C.

item.smiles: CCn1ncc(C(=O)c2ccc(Cl)c(NC(=O)N3CCOCC3)c2Cl)c1O
logP: (I-2) logP = 1.13^a)
//
item.smiles: CCn1ncc(C(=O)c2ccc(Cl)c(NC(=O)NCC(OC)OC)c2Cl)c1O
logP: (I-2) logP = 1.13^a)

###

experiment: logP determination by HPLC on reversed-phase column, acidic range; type: physicochemical; conditions: reversed-phase C18 HPLC column; pH=2.3
measured.metric: chromatographic logP
Give the figure by itself; no unit, no explanation.

// below: answered compounds
item.smiles: CN1CCN(C(=O)Nc2c(Cl)ccc(C(=O)O)c2Cl)C1=O
chromatographic logP: 1.35
//
item.smiles: COC(=O)c1ccc(Cl)c(NC(=O)N2CCN(C)C2=O)c1Cl
chromatographic logP: 1.94

As a next step, examine the compound that follows.
The measured chromatographic logP associated with CCn1ncc(C(=O)c2ccc(Cl)c(NC(=O)N3CCN(C)C3=O)c2Cl)c1O reads 1.58

###

test: logP determination by HPLC on reversed-phase column, acidic range; format: physicochemical; conditions: marked a): acidic range, 0.1% aqueous phosphoric acid/acetonitrile gradient, reversed-phase C 18 HPLC, 43° C.

item.smiles: CCn1ncc(C(=O)c2ccc(Cl)c(NC(=O)N3CCCCO3)c2Cl)c1O
logP: (I-2) logP = 1.63^a)
--
item.smiles: CCN1CCN(C(=O)Nc2c(Cl)ccc(C(=O)c3cnn(C)c3O)c2Cl)C1=O
logP: (I-2) logP = 1.63^a)
